- Test system: CCRF-CEM leukemia
- Experimental details: NCI tumour cell line growth inhibition, 48 h
Observable: TGI

# return recorded TGI for input Cn1cnnc1Sc1c([N+](=O)[O-])ncn1C
> 100 µM

# return recorded TGI for input Nc1n[nH]c(=O)c2c1c(I)cn2C1OC(CO)C(O)C1O (stereo unspecified)
4.12 µM

# return recorded TGI for input Cc1cc(C(F)(F)F)cc(-n2nc(NS(=O)(=O)c3cc(C)c(Cl)cc3S)nc2N)n1
54.1 µM

# return recorded TGI for input COc1ccc(-c2nc3ncccn3c2-c2ccc(SC)cc2)cc1
> 100 µM

# return recorded TGI for input C=CCN(C(=O)CNC(=O)C(F)(F)F)c1cc(OCc2ccccc2)c2c(c1)c(C)cn2S(=O)(=O)c1ccccc1
> 100 µM

# return recorded TGI for input O=[N+]([O-])c1ccc(-c2cnc3ccccn23)cc1
> 100 µM

---

- Tested on: SNB-78 CNS
- Experimental details: NCI tumour cell line growth inhibition, 48 h
I'd appreciate it if you could supply TGI values for the items below.

Give reported TGI for Cn1c2ccccc2c2ncc3[nH]c4ccccc4c3c21 (SNB-78 CNS)
57.6 µM

Give reported TGI for O=C(CSc1c2ccccc2nc2ccccc12)Nc1ccccc1-c1ccccc1NC(=O)CSc1c2ccccc2nc2ccccc12 (SNB-78 CNS)
92.2 µM

Give reported TGI for C/C(=N\NC(=S)N1CCCCCC1)c1ccccn1 (SNB-78 CNS)
13.7 µM

Give reported TGI for [N-]=[N+]=N/C1=C/CCCCC(=O)C1 (SNB-78 CNS)
> 100 µM

Give reported TGI for C=CCN1CCC23c4c5ccc(O)c4OC2C(=NN=C2CCC4(O)C6Cc7ccc(O)c8c7C4(CCN6CC=C)C2O8)CCC3(O)C1C5 (stereo unspecified) (SNB-78 CNS)
68 µM

Give reported TGI for O=[N+]([O-])c1ccc(-c2cnc3ccccn23)cc1 (SNB-78 CNS)
> 100 µM

---

I'd appreciate it if you could supply TGI values for the items below.
- Tested on: A549 NSCLC
- Experimental details: NCI tumour cell line growth inhibition, 48 h

Give reported TGI for COc1cccc2nc3c(C(=O)NCCN(C)C)cccc3cc12 (A549 NSCLC)
4.49 µM

Give reported TGI for [N-]=[N+]=N/C1=C/CCCCC(=O)C1 (A549 NSCLC)
> 100 µM

Give reported TGI for CN(C)CCNC(=O)c1cccc2ccc(-c3ccc(F)cc3)nc12 (A549 NSCLC)
17.9 µM

Give reported TGI for COC(=O)C(C(=O)Cc1ccccc1[N+](=O)[O-])C(=O)OC (A549 NSCLC)
> 100 µM

Give reported TGI for C[C@@]12CCC[C@@](C)(C(=O)O)C1CC[C@]13CC(=O)[C@](CO)(C1)[C@@H](O)CC32 (stereo partly specified) (A549 NSCLC)
> 100 µM

Give reported TGI for C(=C\c1ccc(-c2cn3cc(/C=C/C=N/NC4=NCCN4)ccc3n2)cc1)/C=N/NC1=NCCN1 (A549 NSCLC)
1.98 µM

Give reported TGI for CN1C(=O)C2CCCC(=O)N2c2cccnc21 (stereo unspecified) (A549 NSCLC)
> 100 µM

Give reported TGI for Cn1c(Nc2ccc(C(F)(F)F)cc2)nc2cc(Oc3ccnc(-c4ncc(C(F)(F)F)[nH]4)c3)ccc21 (A549 NSCLC)
11.7 µM

Give reported TGI for O=C(O)c1ccc(C(=O)O)c2c(C(=O)O)ccc(C(=O)O)c12 (A549 NSCLC)
> 100 µM

Give reported TGI for COc1ccc(/C(Cl)=C(\C=O)c2ccc(OC)cc2)cc1 (A549 NSCLC)
> 100 µM

Give reported TGI for c1ccc2c(c1)SCCC2NC1=NCCO1 (stereo unspecified) (A549 NSCLC)
> 100 µM
